- STUDY_TARGET: Epac2^Δ280 (Mus musculus)
- Construct: made in house
- Sequence (Q9EQZ6 299-1011, stated change not applied): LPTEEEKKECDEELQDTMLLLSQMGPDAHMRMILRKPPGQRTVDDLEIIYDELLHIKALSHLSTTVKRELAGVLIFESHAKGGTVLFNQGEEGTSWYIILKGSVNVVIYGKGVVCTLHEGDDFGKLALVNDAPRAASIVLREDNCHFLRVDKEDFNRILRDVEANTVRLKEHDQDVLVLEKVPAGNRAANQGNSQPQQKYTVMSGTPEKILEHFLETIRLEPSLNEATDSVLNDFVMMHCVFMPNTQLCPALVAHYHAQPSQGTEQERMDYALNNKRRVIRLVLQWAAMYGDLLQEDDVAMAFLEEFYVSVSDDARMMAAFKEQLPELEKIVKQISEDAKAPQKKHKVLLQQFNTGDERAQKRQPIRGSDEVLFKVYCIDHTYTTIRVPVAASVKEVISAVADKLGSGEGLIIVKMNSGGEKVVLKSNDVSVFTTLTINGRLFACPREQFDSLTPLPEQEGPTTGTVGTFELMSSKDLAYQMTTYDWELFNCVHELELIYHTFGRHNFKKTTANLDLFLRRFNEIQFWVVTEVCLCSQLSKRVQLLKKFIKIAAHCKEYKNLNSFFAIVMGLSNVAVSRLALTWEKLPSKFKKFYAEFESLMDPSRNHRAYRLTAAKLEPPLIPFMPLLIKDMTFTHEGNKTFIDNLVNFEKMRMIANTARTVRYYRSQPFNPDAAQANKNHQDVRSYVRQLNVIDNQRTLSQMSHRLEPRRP
- ASSAY_REMARKS: Epac activation assay (Rap1B•mGDP fluorescence nucleotide exchange), Epac2^Δ280
- Assay type: biochemical
- RUN_PARAMETERS: Epac2^Δ280
MEASURED_METRIC: AC50 (nM)
Give just the number in nM; leave the unit off.

Worked set:
[
  {
    "STRUCTURE_SMILES": "Nc1ncnc2c1nc(NCCCCO)n2[C@@H]1O[C@@H]2COP(=O)(O)O[C@H]2[C@H]1O",
    "MEASURED_METRIC": "AC50",
    "NUMERIC_VALUE": 2600
  },
  {
    "STRUCTURE_SMILES": "Nc1ncnc2c1nc(OCc1ccccc1)n2[C@@H]1O[C@@H]2COP(=O)(O)O[C@H]2[C@H]1O",
    "MEASURED_METRIC": "AC50",
    "NUMERIC_VALUE": 1300
  },
  {
    "STRUCTURE_SMILES": "Nc1ncnc2c1nc(Br)n2[C@@H]1O[C@@H]2CO[P@](O)(=S)O[C@H]2[C@H]1Cl",
    "MEASURED_METRIC": "AC50",
    "NUMERIC_VALUE": 8000
  }
]

Would you kindly look at the next entry?
Reported AC50 for Nc1ncnc2c1nc(SCc1ccccc1Cl)n2[C@@H]1O[C@@H]2CO[P@](O)(=S)O[C@H]2[C@H]1O was 270

All figures here come from paper PMC4300089.
